Listed next: entries and their corresponding pIC50.
- measured.target: Wee1 kinase (Homo sapiens, UniProt P30291)
- Sequence (P30291 whole entry): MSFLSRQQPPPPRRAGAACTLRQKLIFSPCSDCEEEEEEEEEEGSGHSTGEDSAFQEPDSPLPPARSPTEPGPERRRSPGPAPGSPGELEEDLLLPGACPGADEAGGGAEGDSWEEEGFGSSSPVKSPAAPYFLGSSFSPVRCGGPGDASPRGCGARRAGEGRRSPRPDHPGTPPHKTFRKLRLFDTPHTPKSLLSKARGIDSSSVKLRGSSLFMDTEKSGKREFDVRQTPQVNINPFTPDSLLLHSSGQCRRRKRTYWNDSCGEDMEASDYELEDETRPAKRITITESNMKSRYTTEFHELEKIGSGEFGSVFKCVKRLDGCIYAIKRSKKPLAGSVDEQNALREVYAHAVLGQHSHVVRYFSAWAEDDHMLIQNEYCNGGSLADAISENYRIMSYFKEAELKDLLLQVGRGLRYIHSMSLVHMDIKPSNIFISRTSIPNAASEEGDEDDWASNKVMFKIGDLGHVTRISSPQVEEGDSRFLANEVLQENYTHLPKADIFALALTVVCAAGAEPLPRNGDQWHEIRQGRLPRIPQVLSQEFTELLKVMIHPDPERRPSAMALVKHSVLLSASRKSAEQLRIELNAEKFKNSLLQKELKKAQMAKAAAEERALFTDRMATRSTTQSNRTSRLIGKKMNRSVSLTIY
- assay.text: Wee1 Binding Assay (FRET)
- experimental.conditions: FRET, Wee1 kinase 2 nM, tracer 178 50 nM, 60 min at RT; read-out: Wee1 enzymatic IC50
pIC50: −log10 of the molar value.

Recorded results for 8 compounds are shown here.
C=CCn1c(=O)c2cnc(Nc3ccc(N4CCN(C)CC4)c(F)c3)nc2n1-c1ccc2c(n1)[C@@](C)(O)CC2 (single isomer, unassigned) [Example 11A]
> 8.00
C=CCn1c(=O)c2cnc(Nc3ccc(N4CCN(C)CC4)cc3)nc2n1-c1cnc2c(c1)[C@](C)(O)CO2 (single isomer, unassigned) [Example 35B]
7.00 to 8.00
C=CCn1c(=O)c2cnc(Nc3ccc(N4CCN(C)CC4)c(C)c3)nc2n1-c1ccc2c(n1)[C@](C)(O)CCC2 (single isomer, unassigned) [Example 27B]
> 8.00
C=CCn1c(=O)c2cnc(Nc3ccc(N4CCN(C)CC4)cc3)nc2n1-c1cn2c(n1)[C@](C)(O)CC2 (single isomer, unassigned) [Example 36B]
< 7.00
C=CCn1c(=O)c2cnc(Nc3ccc(N4CCN(C)CC4)cc3)nc2n1-c1cn2c(n1)[C@@](C)(O)CC2 (single isomer, unassigned) [Example 36A]
7.00 to 8.00
C=CCn1c(=O)c2cnc(Nc3ccc(N4CCN(C)CC4)cc3)nc2n1-c1ccc2c(n1)C(=O)N(C)C2
7.00 to 8.00
C=CCn1c(=O)c2cnc(Nc3ccc(N4CCN(C)CC4)c(F)c3)nc2n1-c1ccc2c(n1)[C@](C)(O)CC2 (single isomer, unassigned) [Example 11B]
> 8.00
C=CCn1c(=O)c2cnc(Nc3ccc(N4CCN(C)CC4)cc3)nc2n1-c1cn2c(n1)COCC2
7.00 to 8.00

So what does the record say about pIC50 for C=CCn1c(=O)c2cnc(Nc3ccc(N4CCN(C)CC4)c(C)c3)nc2n1-c1ccc2c(n1)[C@@](C)(O)CCC2 (single isomer, unassigned) [Example 27A] ?
> 8.00

So what does the record say about pIC50 for `C=CCn1c(=O)c2cnc(Nc3ccc(N4CCNCC4)cc3)nc2n1-c1ccc2c(n1)C(F)(F)CC2` ?
> 8.00

So what does the record say about pIC50 for C=CCn1c(=O)c2cnc(Nc3ccc(N4CCN(C)CC4)cc3)nc2n1-c1ccc2c(c1)[C@@](O)(CC)CC2 (single isomer, unassigned) [Example 22B] ?
> 8.00
